Hey, just so you know, these numbers are from patent US20190053492A1.

- assayComment: log P by HPLC on reversed-phase column (C 18), EEC Directive 79/831 Annex V.A8
- Format: physicochemical
- recordedConditions: log P, neutral range; HPLC on reversed-phase column (C 18), 55° C.
- Experimental: Temperature: 55° C. […] Called log P (HCOOH) in the table. […] Called log P (neutral) in the table.
# t = LOGP_NEUTRAL below 4 (exclusive); f = LOGP_NEUTRAL at/above 4

{"columns": ["compound", "classification"],
 "data": [
  ["O=C(NCc1ccc(C(F)(F)F)c(F)c1)c1cc(-c2ccc(C(F)(F)F)cc2)cc(NC(=O)C2CC2)n1 [Example I-064]", "f"],
  ["COC(=O)N(Cc1ccc(C#N)cc1)C(=O)c1cc(-c2ccc(OC(F)(F)F)cc2)cc(N(C(=O)OC)C(=O)C2CC2)n1 [Example I-232]", "f"],
  ["N#Cc1ccc(CNC(=O)c2cc(-c3ccc(OC(F)(F)F)c(F)c3)cc(NC(=O)C3CC3)n2)cc1 [Example I-121]", "t"],
  ["CC(C)C(=O)Nc1cc(-c2ccc(C(F)(F)F)cc2)cc(C(=O)NCc2ccc(Cl)nc2)n1 [Example I-014]", "t"],
  ["O=C(Nc1ccc(Cl)cc1)c1cc(-c2ccc(C(F)(F)F)cc2)cc(NC(=O)C2CC2)n1 [Example I-021]", "f"],
  ["N#Cc1ccc(CNC(=O)c2cc(-c3ccc(OC(F)(F)F)cc3)cc(NC(=O)C3CCCC3)n2)cc1 [Example I-207]", "f"],
  ["CC(=O)Nc1cc(-c2ccc(OC(F)(F)F)cc2)cc(C(=O)NCc2ccc(C#N)cc2)n1 [Example I-204]", "t"]
]}

---

- assayComment: log P by HPLC on reversed-phase column (C 18), EEC Directive 79/831 Annex V.A8
- Assay type: physicochemical
- recordedConditions: log P (HCOOH), acidic range pH 2.7, 0.1% aqueous formic acid and acetonitrile; reversed-phase column (C 18), 55° C.
- Description: Temperature: 55° C. […] Called log P (HCOOH) in the table. […] Called log P (neutral) in the table.
Measured LOGP_HCOOH of individual entries

{"columns": ["compound", "LOGP_HCOOH"],
 "data": [
  ["O=C(NCc1ccc([N+](=O)[O-])cc1)c1cc(-c2ccc(OC(F)(F)F)cc2)cc(NC(=O)C2CC2)n1 [Example I-085]", 4.11],
  ["N#Cc1ccc(CNC(=O)c2cc(-c3ccc(OC(F)(F)F)cc3)cc(NC(=O)C3CC3)n2)s1 [Example I-255]", 3.90],
  ["O=C(NCCC(F)(F)F)c1cc(-c2ccc(C(F)(F)C(F)(F)F)c(F)c2)cc(NC(=O)C2CC2)n1 [Example I-246]", 4.37],
  ["O=C(NCc1ccc(Cl)cc1)c1cc(-c2ccc(C(F)(F)F)cc2)cc(NC(=O)C2CC2)n1 [Example I-008]", 4.48],
  ["N#Cc1ccc(CNC(=O)c2cc(-c3cc(F)c(C(F)(F)C(F)(F)F)cc3F)cc(NC(=O)C3CC3)n2)cc1 [Example I-275]", 4.11],
  ["CC(C)C(=O)Nc1cc(-c2ccc(C(F)(F)F)cc2)cc(C(=O)NCc2cc(F)c(C#N)c(F)c2)n1 [Example I-072]", 4.23],
  ["O=C(NCc1ccc(C(F)(F)F)cc1F)c1cc(-c2ccc(OC(F)(F)F)cc2)cc(NC(=O)C2CC2)n1 [Example I-065]", 4.80],
  ["Cn1nccc1-c1ccc(CNC(=O)c2cc(-c3ccc(OC(F)(F)F)cc3)cc(NC(=O)C3CC3)n2)cc1 [Example I-107]", 3.86]
]}
